target: human epidermal growth factor receptor 2 (HER2), membrane-bound on cells (human, UniProt P04626 23-1255); assay: cell-based or functional assay
Provide the recorded Maximal MFI, fab-CypHer5E internalization, AU565 for the entries that follow.
// note: answer is a bare numeric in MFI

Documented Maximal MFI, fab-CypHer5E internalization, AU565 of HuMab 153 (antibody, V domains shown) VH: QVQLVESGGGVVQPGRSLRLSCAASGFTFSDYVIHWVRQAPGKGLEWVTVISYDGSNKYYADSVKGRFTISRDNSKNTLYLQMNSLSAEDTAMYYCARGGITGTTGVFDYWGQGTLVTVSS VL: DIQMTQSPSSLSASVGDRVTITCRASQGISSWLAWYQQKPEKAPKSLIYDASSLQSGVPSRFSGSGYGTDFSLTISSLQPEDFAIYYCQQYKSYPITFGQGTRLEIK : 87500

Documented Maximal MFI, fab-CypHer5E internalization, AU565 of HuMab 129 (antibody, V domains shown) VH: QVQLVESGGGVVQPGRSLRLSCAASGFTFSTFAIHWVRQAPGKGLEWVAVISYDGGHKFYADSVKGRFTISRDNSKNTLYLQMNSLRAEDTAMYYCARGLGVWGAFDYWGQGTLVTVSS VL: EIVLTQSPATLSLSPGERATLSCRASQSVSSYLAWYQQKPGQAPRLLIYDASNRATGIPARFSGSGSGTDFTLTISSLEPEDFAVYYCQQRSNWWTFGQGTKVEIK : 60300

Documented Maximal MFI, fab-CypHer5E internalization, AU565 of HuMab 132 (antibody, V domains shown) VH: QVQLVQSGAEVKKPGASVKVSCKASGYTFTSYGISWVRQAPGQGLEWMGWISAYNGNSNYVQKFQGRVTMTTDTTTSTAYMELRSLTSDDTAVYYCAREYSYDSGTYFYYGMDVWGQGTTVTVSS VL: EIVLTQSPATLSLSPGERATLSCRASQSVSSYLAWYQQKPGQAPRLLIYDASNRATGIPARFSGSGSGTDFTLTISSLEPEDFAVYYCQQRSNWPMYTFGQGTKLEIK : 112000

Documented Maximal MFI, fab-CypHer5E internalization, AU565 of HuMab 084 (antibody, V domains shown, also called TH1014-084; PC1014-084) VH: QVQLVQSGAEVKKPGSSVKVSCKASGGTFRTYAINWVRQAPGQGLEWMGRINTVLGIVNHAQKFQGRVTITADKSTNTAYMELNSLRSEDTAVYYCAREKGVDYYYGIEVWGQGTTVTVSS VL: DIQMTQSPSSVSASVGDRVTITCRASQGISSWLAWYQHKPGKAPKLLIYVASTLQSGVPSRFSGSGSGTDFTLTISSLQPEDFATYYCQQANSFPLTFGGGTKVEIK : 71100
